experiment: Elimination half life in rat; format: ADME, organism-based; conditions: in vivo, read-out: beta t1/2 (converted)
ASSAY METRIC: half-life (h)
Write the number in h without appending the unit.

Reported half-life ( C[C@H]1CC(CN)(CC(=O)O)C[C@@H]1C (relative stereo) ) = 2.4
